Test system: E. coli GC 1073
Assay: MIC, broth microdilution
Details: Escherichia coli, GC1073, E. coli GC 1073; Water pre-incubation
# MIC per entry

>  <Molecule>
CCCN(CC(=O)Nc1cc(N(C)C)c2c(c1O)C(=O)C1=C(O)[C@]3(O)C(=O)C(C(N)=O)=C(O)[C@@H](N(C)C)[C@@H]3C[C@@H]1C2)C(=O)OCOC(=O)c1ccc(C)cc1

>  <Sign qualifier>
=

>  <MIC [µg/mL]>
32

$$$$
>  <Molecule>
CCCN(CC(=O)Nc1cc(N(C)C)c2c(c1O)C(=O)C1=C(O)[C@]3(O)C(=O)C(C(N)=O)=C(O)[C@@H](N(C)C)[C@@H]3C[C@@H]1C2)C(=O)OCOC(=O)C(C)(C)C

>  <Sign qualifier>
=

>  <MIC [µg/mL]>
8

$$$$
>  <Molecule>
CCCCN(CC(=O)Nc1cc(N(C)C)c2c(c1O)C(=O)C1=C(O)[C@]3(O)C(=O)C(C(N)=O)=C(O)[C@@H](N(C)C)C3CC1C2)C(=O)OCOC(=O)c1ccc(OC)cc1 (stereo partly shown)

>  <Sign qualifier>
=

>  <MIC [µg/mL]>
64

$$$$
>  <Molecule>
CCCN(CC(=O)Nc1cc(N(C)C)c2c(c1O)C(=O)C1=C(O)[C@]3(O)C(=O)C(C(N)=O)=C(O)[C@@H](N(C)C)[C@@H]3C[C@@H]1C2)C(=O)OCc1ccccc1

>  <Sign qualifier>
>

>  <MIC [µg/mL]>
64

$$$$
>  <Molecule>
CCCN(CC(=O)Nc1cc(N(C)C)c2c(c1O)C(=O)C1=C(O)[C@]3(O)C(=O)C(C(N)=O)=C(O)[C@@H](N(C)C)[C@@H]3C[C@@H]1C2)C(=O)OCC(C)C

>  <Sign qualifier>
>

>  <MIC [µg/mL]>
64

$$$$
>  <Molecule>
CCCN(CC(=O)Nc1cc(N(C)C)c2c(c1O)C(=O)C1=C(O)[C@]3(O)C(=O)C(C(N)=O)=C(O)[C@@H](N(C)C)[C@@H]3C[C@@H]1C2)C(=O)OCOC(=O)C1CCC1

>  <Sign qualifier>
=

>  <MIC [µg/mL]>
8

$$$$
>  <Molecule>
CCCCN(CC(=O)Nc1cc(N(C)C)c2c(c1O)C(=O)C1=C(O)[C@]3(O)C(=O)C(C(N)=O)=C(O)[C@@H](N(C)C)[C@@H]3C[C@@H]1C2)C(=O)OCOC(=O)Cc1ccccc1

>  <Sign qualifier>
=

>  <MIC [µg/mL]>
64

$$$$

* * *

Test system: E. faecalis GC 4555
Assay: MIC, broth microdilution
Conditions: Enterococcus faecalis, GC4555, read-out: MINIMAL INHIBITORY CONCENTRATION MIC, Mouse Serum

>  <Compound>
CC(C)COC(=O)N(CC(=O)Nc1cc(N(C)C)c2c(c1O)C(=O)C1=C(O)[C@]3(O)C(=O)C(C(N)=O)=C(O)[C@@H](N(C)C)[C@@H]3C[C@@H]1C2)C(C)(C)C [Example 59]

>  <Study system>
E. faecalis GC 4555

>  <Units of measure>
µg/mL

>  <MIC>
4

$$$$
>  <Compound>
Cc1cc(C)cc(C(=O)OCOC(=O)N(CC(=O)Nc2cc(N(C)C)c3c(c2O)C(=O)C2=C(O)[C@]4(O)C(=O)C(C(N)=O)=C(O)[C@@H](N(C)C)[C@@H]4C[C@@H]2C3)C(C)(C)C)c1 [Example 51]

>  <Study system>
E. faecalis GC 4555

>  <Units of measure>
µg/mL

>  <MIC>
1

$$$$
>  <Compound>
CN(C)c1cc(NC(=O)CN(C(=O)OCOC(=O)c2ccc(F)cc2)C(C)(C)C)c(O)c2c1C[C@H]1C[C@H]3[C@H](N(C)C)C(O)=C(C(N)=O)C(=O)[C@@]3(O)C(O)=C1C2=O [Example 52]

>  <Study system>
E. faecalis GC 4555

>  <Units of measure>
µg/mL

>  <MIC>
0.5

$$$$
>  <Compound>
CCCCOC(=O)N(CC(=O)Nc1cc(N(C)C)c2c(c1O)C(=O)C1=C(O)[C@]3(O)C(=O)C(C(N)=O)=C(O)[C@@H](N(C)C)[C@@H]3C[C@@H]1C2)C(C)(C)C [Example 58]

>  <Study system>
E. faecalis GC 4555

>  <Units of measure>
µg/mL

>  <MIC>
4

$$$$

* * *

Test system: E. coli GC 2272
Test: MIC, broth microdilution
Conditions: Escherichia coli, GC2272, read-out: MINIMAL INHIBITORY CONCENTRATION MIC, Mouse Serum
This section presents compounds with their documented MIC values.

>  <Structure string>
CCC(=O)OCOC(=O)N(CC(=O)Nc1cc(N(C)C)c2c(c1O)C(=O)C1=C(O)[C@]3(O)C(=O)C(C(N)=O)=C(O)[C@@H](N(C)C)[C@@H]3C[C@@H]1C2)C(C)(C)C

>  <MIC [µg/mL]>
0.5

$$$$
>  <Structure string>
CCCCCCC(=O)OCOC(=O)N(CC(=O)Nc1cc(N(C)C)c2c(c1O)C(=O)C1=C(O)[C@]3(O)C(=O)C(C(N)=O)=C(O)[C@@H](N(C)C)[C@@H]3C[C@@H]1C2)C(C)(C)C

>  <MIC [µg/mL]>
0.25

$$$$
>  <Structure string>
CN(C)c1cc(NC(=O)CN(C(=O)OCOC(=O)c2ccc(F)cc2)C(C)(C)C)c(O)c2c1C[C@H]1C[C@H]3[C@H](N(C)C)C(O)=C(C(N)=O)C(=O)[C@@]3(O)C(O)=C1C2=O

>  <MIC [µg/mL]>
0.5

$$$$
>  <Structure string>
Cc1cc(C)cc(C(=O)OCOC(=O)N(CC(=O)Nc2cc(N(C)C)c3c(c2O)C(=O)C2=C(O)[C@]4(O)C(=O)C(C(N)=O)=C(O)[C@@H](N(C)C)[C@@H]4C[C@@H]2C3)C(C)(C)C)c1

>  <MIC [µg/mL]>
2

$$$$

* * *

Tested on: S. aureus GC 6335
Test: MIC, broth microdilution
Settings: Staphylococcus aureus, GC6335, S. aureus GC 6335; Mouse Serum pre-incubation
Measure: MIC (µg/mL)

>  <Compound>
CCCCN(CC(=O)Nc1cc(N(C)C)c2c(c1O)C(=O)C1=C(O)[C@]3(O)C(=O)C(C(N)=O)=C(O)[C@@H](N(C)C)C3CC1C2)C(=O)OCOC(=O)C(C)C (some centres unmarked) [Example 1]

>  <Measure>
MIC

>  <Units of measure>
µg/mL

>  <Reported measurement>
2

$$$$
>  <Compound>
CCCN(CC(=O)Nc1cc(N(C)C)c2c(c1O)C(=O)C1=C(O)[C@]3(O)C(=O)C(C(N)=O)=C(O)[C@@H](N(C)C)[C@@H]3C[C@@H]1C2)C(=O)OCC [Example 15]

>  <Measure>
MIC

>  <Units of measure>
µg/mL

>  <Reported measurement>
4

$$$$
>  <Compound>
CCCN(CC(=O)Nc1cc(N(C)C)c2c(c1O)C(=O)C1=C(O)[C@]3(O)C(=O)C(C(N)=O)=C(O)[C@@H](N(C)C)[C@@H]3C[C@@H]1C2)C(=O)OCc1ccccc1 [Example 14]

>  <Measure>
MIC

>  <Units of measure>
µg/mL

>  <Reported measurement>
1

$$$$
>  <Compound>
CCCCN(CC(=O)Nc1cc(N(C)C)c2c(c1O)C(=O)C1=C(O)[C@]3(O)C(=O)C(C(N)=O)=C(O)[C@@H](N(C)C)C3CC1C2)C(=O)OCOC(=O)c1ccc(C)cc1 (some centres unmarked) [Example 3]

>  <Measure>
MIC

>  <Units of measure>
µg/mL

>  <Reported measurement>
2

$$$$
>  <Compound>
CCCN(CC(=O)Nc1cc(N(C)C)c2c(c1O)C(=O)C1=C(O)[C@]3(O)C(=O)C(C(N)=O)=C(O)[C@@H](N(C)C)[C@@H]3C[C@@H]1C2)C(=O)OCOC(=O)C(C)(C)C [Example 9]

>  <Measure>
MIC

>  <Units of measure>
µg/mL

>  <Reported measurement>
0.25

$$$$

* * *

Tested on: Staph. aureus Smith
Assay: In vivo activity (oral, iv; ED50) against Staph. aureus Smith in mice
Details: iv, read-out: ED50 Staph Smith SIV

>  <Compound>
CCCCN(CC(=O)Nc1cc(N(C)C)c2c(c1O)C(=O)C1=C(O)[C@]3(O)C(=O)C(C(N)=O)=C(O)[C@@H](N(C)C)[C@@H]3C[C@@H]1C2)C(=O)OCOC(=O)C(C)(C)C [Example 13]

>  <ED50>
0.82 mg/kg

$$$$
>  <Compound>
CCCCN(CC(=O)Nc1cc(N(C)C)c2c(c1O)C(=O)C1=C(O)[C@]3(O)C(=O)C(C(N)=O)=C(O)[C@@H](N(C)C)C3CC1C2)C(=O)OCOC(=O)c1ccc(C)cc1 (some centres unmarked) [Example 3]

>  <ED50>
0.59 mg/kg

$$$$
>  <Compound>
CCCN(CC(=O)Nc1cc(N(C)C)c2c(c1O)C(=O)C1=C(O)[C@]3(O)C(=O)C(C(N)=O)=C(O)[C@@H](N(C)C)[C@@H]3C[C@@H]1C2)C(=O)OCOC(=O)c1ccc(OC)cc1 [Example 6]

>  <ED50>
0.87 mg/kg

$$$$
>  <Compound>
CN(C)c1cc(NC(=O)CN(C(=O)OCOC(=O)c2c(F)cccc2F)C(C)(C)C)c(O)c2c1C[C@H]1C[C@H]3[C@H](N(C)C)C(O)=C(C(N)=O)C(=O)[C@@]3(O)C(O)=C1C2=O [Example 90]

>  <ED50>
0.5 to 1 mg/kg

$$$$
>  <Compound>
CCCN(CC(=O)Nc1cc(N(C)C)c2c(c1O)C(=O)C1=C(O)[C@]3(O)C(=O)C(C(N)=O)=C(O)[C@@H](N(C)C)[C@@H]3C[C@@H]1C2)C(=O)OCc1ccccc1 [Example 14]

>  <ED50>
> 2 mg/kg

$$$$
